Source of measurements: patent US20220259288A1

# target-under-test: T1, HLA-DP DPB1*02:01 (human)
# T1 chain 1: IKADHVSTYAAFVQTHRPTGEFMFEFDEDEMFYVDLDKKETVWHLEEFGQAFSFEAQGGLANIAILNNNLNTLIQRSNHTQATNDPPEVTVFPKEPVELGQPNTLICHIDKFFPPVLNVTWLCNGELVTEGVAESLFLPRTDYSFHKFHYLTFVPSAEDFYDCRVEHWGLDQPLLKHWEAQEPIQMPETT
# T1 chain 2: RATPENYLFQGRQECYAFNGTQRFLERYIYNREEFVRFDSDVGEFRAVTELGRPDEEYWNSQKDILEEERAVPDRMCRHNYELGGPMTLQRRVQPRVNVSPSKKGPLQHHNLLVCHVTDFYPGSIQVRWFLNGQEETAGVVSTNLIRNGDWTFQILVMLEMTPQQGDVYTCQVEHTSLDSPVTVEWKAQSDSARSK
# measurement-notes: competition assay
measure: IC50

{"binder": "FLHYIFMENAFELPT [ApoB100 peptide 3563.0006]", "measure": "IC50", "data-value": "40 nM"}
{"binder": "HVKHFVINLIGDFEV [ApoB100 peptide 3563.0014]", "measure": "IC50", "data-value": "58 nM"}
{"binder": "IDLSIQNYHTFLIYI [ApoB100 peptide 3563.0029]", "measure": "IC50", "data-value": "23200 nM"}
{"binder": "QELLDIANYLMEQIQ [ApoB100 peptide 3563.0003]", "measure": "IC50", "data-value": "1780 nM"}
{"binder": "VGSKLIVAMSSWLQK (agrees with the claims) [ApoB100 peptide 3563.0008]", "measure": "IC50", "data-value": "128 nM"}
{"binder": "EGHLRFLKNIILPVY [ApoB100 peptide 3563.0021]", "measure": "IC50", "data-value": "61 nM"}
{"binder": "YKKLRTSSFALNLPT [ApoB100 peptide 3563.0022]", "measure": "IC50", "data-value": "3.3 nM"}
{"binder": "QEVFKAIQSLKTTEV [ApoB100 peptide 3563.0024]", "measure": "IC50", "data-value": "200 nM"}
{"binder": "FLIYITELLKKLQST [ApoB100 peptide 3563.0030]", "measure": "IC50", "data-value": "96 nM"}
{"binder": "QIHQYIMALREEYFD [ApoB100 peptide 3563.0027]", "measure": "IC50", "data-value": "80 nM"}
{"binder": "SLFFSAQPFEITAST (also called p18) [ApoB100 peptide 3563.0018]", "measure": "IC50", "data-value": "11 nM"}
{"binder": "GKLYSILKIQSPLFT [ApoB100 peptide 3563.0016]", "measure": "IC50", "data-value": "9070 nM"}
{"binder": "LSQLQTYMIQFDQYI [ApoB100 peptide 3563.0012]", "measure": "IC50", "data-value": "576 nM"}
{"binder": "LEVLNFDFQANAQLS (agrees with the claims) [ApoB100 peptide 3563.0017]", "measure": "IC50", "data-value": "86 nM"}
{"binder": "GKIDFLNNYALFLSP [ApoB100 peptide 3563.0019]", "measure": "IC50", "data-value": "456 nM"}
